pIC50: −log10 of the molar value.
Test system dopamine autoreceptor (Rattus norvegicus), pIC50 listed for each of the compounds.
observable: pIC50

> print(dat)
                                   compound  observable  value.reported
1    c1ccc(CNCCOc2cccc3[nH]ccc23)cc1 [(3b)]       pIC50            7.71
2  Clc1c[nH]c2cccc(OCCNCCCCc3ccccc3)c12 [(2a)]       pIC50            8.02
3  Clc1ccc(OCCNCc2ccccc2)c2cc[nH]c12 [(1b)]       pIC50            7.83
4  c1ccc(CCCCNCCOc2cccc3[nH]ccc23)cc1 [(1a)]       pIC50            7.98
5  Clc1ccc(OCCNCc2cccs2)c2c(Cl)c[nH]c12 [(1f)]       pIC50            7.65
6  Clc1ccc(OCCNCc2ccccc2)c2c(Cl)c[nH]c12 [(1c)]       pIC50            7.87
7  O=C(c1c[nH]c2cccc(OCCNCc3ccccc3)c12)C(F)(F)F [(3a)]       pIC50            8.23
